# TESTED ON: T1, MtrA (MtrASCO) (Streptomyces coelicolor M145, UniProt Q9KYW8 1-229)
# T1 sequence: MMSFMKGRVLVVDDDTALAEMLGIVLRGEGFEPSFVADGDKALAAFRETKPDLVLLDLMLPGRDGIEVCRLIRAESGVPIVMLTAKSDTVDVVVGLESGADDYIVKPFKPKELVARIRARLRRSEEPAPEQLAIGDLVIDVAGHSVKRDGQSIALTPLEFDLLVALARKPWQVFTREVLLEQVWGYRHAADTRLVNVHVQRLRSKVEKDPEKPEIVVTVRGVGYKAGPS
# METHOD NOTES: EMSA; shift increases with MtrA; EMSA: 20 mM Tris-HCl pH 8.0, 2 mM EDTA, 20 mM KCl, 0.5 mM DTT, 4% Ficoll-400, 2 ug poly(dI-dC), 50 fmol probe, 20 ul, room temperature 15 min; footprinting 25 C, 30 min, 400 ng probe, 40 ul, poly(dI-dC)
# RECORDED CONDITIONS: protein: recombinant; tags: His-tag (pET28a NdeI/HindIII; native stop codon in primer); chain copies: 2; label: biotin-11-UTP 3' end; blunt
PARAMETER MEASURED: binding result

SCO1568 59bp (dsDNA) DNA 1: CTCTGGGTGTGCGTGACTCACCTCACGGGGCGGTCACGTTCCTGCGGGGCGGTGGTCTG DNA 2: CAGACCACCGCCCCGCAGGAACGTGACCGCCCCGTGAGGTGAGTCACGCACACCCAGAG :: binds
SCO5583 59bp (dsDNA) DNA 1: ACGACGACCGGCCCCGGCCGTTCACCCACGCGTAACACGCACCGTGCCTTCGTCACGGC DNA 2: GCCGTGACGAAGGCACGGTGCGTGTTACGCGTGGGTGAACGGCCGGGGCCGGTCGTCGT :: binds
SCO2210 59bp (dsDNA) DNA 1: GCCGCGCCACAACGAGCCCGGGTAACACGGGGTTCACCTACGGGCAACGGTCGGGAAAT DNA 2: ATTTCCCGACCGTTGCCCGTAGGTGAACCCCGTGTTACCCGGGCTCGTTGTGGCGCGGC :: binds
SCO3863 59bp (dsDNA) DNA 1: CGCCCGACTATACACACCGGCCGATACCGATCGGTGACCTGCGTCGGCGGTCAACTGCC DNA 2: GGCAGTTGACCGCCGACGCAGGTCACCGATCGGTATCGGCCGGTGTGTATAGTCGGGCG :: binds
